Target: hResistin (Homo sapiens (Human))
Assay: Evaluation of the ability to inhibit TNF-α secretion by hResistin (THP-1 cells, ELISA)
Type: cell-based
Conditions: 5 μM, inhibition of TNF-α secretion by hResistin in THP-1 cells
Structures can show the parent of a compound that is named as a salt.
Recorded metric: inhibition at 5 µM (%)
All answers are understood in %, so give the number only.

Consider the worked cases shown below.
Compound: CNC1CCN(c2nnc(Oc3ccc(Cl)cc3)c3ccccc23)C1 (stereo not shown) [Example 93, hydrochloride]
Readout number: 67.6
--
Compound: CC(C)(N)C(=O)N1CC=C(c2nnc(-c3ccc(Cl)cc3)c3ccccc23)CC1 [Example 44, hydrochloride]
Readout number: 50.5
--
Compound: Clc1ccc(-c2nnc(O[C@H]3CCNC3)c3ccccc23)cc1 [Example 95, hydrochloride]
Readout number: 64
--
Compound: CC[C@H](C)[C@H](N)C(=O)N1CCN(c2nnc(-c3ccc(Cl)cc3)c3ccccc23)CC1 [Example 60, hydrochloride]
Readout number: 91.2
--
Compound: CC(C)(N)C(=O)N1CCN(c2nnc(-c3ccc(Cl)cc3)c3ccccc23)CC1 [Example 43, hydrochloride]
Readout number: 84.4
--
Compound: CC(C)(N)C(=O)N1CCC(c2nnc(-c3ccc(Cl)cc3)c3ccccc23)CC1 [Example 64, hydrochloride]
Readout number: 23.9
--
Compound: O=S(=O)(C1CCCC1)N1CCN(c2nnc(-c3ccc(Cl)cc3)c3ccccc23)CC1
Readout number: 64.9
--
Compound: CCNC1CCN(c2nnc(-c3ccc(Cl)cc3)c3ccccc23)C1 (stereo not shown) [Example 54, hydrochloride]
Readout number: 70

Q: // fetch inhibition at 5 µM given entry Clc1ccc(-c2nnc(N3CCC(N4CCOCC4)CC3)c3ccccc23)cc1
Ans: 54.4

Q: // fetch inhibition at 5 µM given entry CC(C)(N)C(=O)N1CCN(c2nnc(-c3ccc(C(F)(F)F)cc3)c3ccccc23)CC1 [Example 102, hydrochloride]
Ans: 37

Q: // fetch inhibition at 5 µM given entry N[C@@H](Cc1c[nH]cn1)C(=O)N1CCN(c2nnc(-c3ccc(Cl)cc3)c3ccccc23)CC1 [Example 76, dihydrochloride]
Ans: 28.9

Q: // fetch inhibition at 5 µM given entry CC(C)(C(=O)O)N1CCN(c2nnc(-c3ccc(Cl)cc3)c3ccccc23)CC1
Ans: 50

----------
Quick list: pIC50 per entry.
Target: hResistin (Homo sapiens (Human), UniProt Q9HD89)
Sequence (Q9HD89 19-108): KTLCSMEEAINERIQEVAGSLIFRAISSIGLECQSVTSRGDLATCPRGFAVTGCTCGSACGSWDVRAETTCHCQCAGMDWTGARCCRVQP
Experiment: Evaluation of the ability to inhibit TNF-α secretion by hResistin (THP-1 cells, ELISA)
Conditions: THP-1 human monocyte cell line, human recombinant Resistin
Where a name gives a salt, the structure may show the parent alone.
Lab note — pIC50 values are minus log10 of concentrations in M.

Consider the worked cases shown below.
Compound: CCNC1CCN(c2nnc(-c3ccc(Cl)cc3)c3ccccc23)C1 (centres unmarked) [Example 54, hydrochloride]
pIC50: 5.72
--
Compound: Clc1ccc(-c2nnc(N3CC4CCNC4C3)c3ccccc23)cc1 (centres unmarked) [Example 88, hydrochloride]
pIC50: 6.05
--
Compound: CC(C)(N)C(=O)N1CCN(c2nnc(-c3ccc(Cl)cc3)c3ccccc23)CC1 [Example 43, hydrochloride]
pIC50: 5.89
--
Compound: OCCN1CCN(c2nnc(-c3ccccc3)c3ccccc23)CC1
pIC50: 6.00
--
Compound: CC(C)[C@H](N)C(=O)N1CCN(c2nnc(-c3ccc(Cl)cc3)c3ccccc23)CC1 [Example 47, hydrochloride]
pIC50: 6.15
--
Compound: NC1(C(=O)N2CCN(c3nnc(-c4ccc(Cl)cc4)c4ccccc34)CC2)CCCC1 [Example 58, hydrochloride]
pIC50: 5.54
--
Compound: CN[C@@H]1CCCN(c2nnc(-c3ccc(Cl)cc3)c3ccccc23)C1 [Example 57, hydrochloride]
pIC50: 6.00
--
Compound: C[C@@H](N)C(=O)N1CCN(c2nnc(-c3ccc(Cl)cc3)c3ccccc23)CC1 [Example 36, hydrochloride]
pIC50: 5.60

Q: // fetch pIC50 given entry CNC1CCN(c2nnc(-c3ccc(Cl)cc3)c3cc(F)ccc23)C1 (centres unmarked) [Example 91, hydrochloride]
Ans: 6.22

Q: // fetch pIC50 given entry Clc1ccc(-c2nnc(O[C@H]3CCNC3)c3ccccc23)cc1 [Example 95, hydrochloride]
Ans: 5.64

Q: // fetch pIC50 given entry CC(=O)NC1CCN(c2nnc(-c3ccc(Cl)cc3)c3ccccc23)C1 (centres unmarked)
Ans: 5.80

Q: // fetch pIC50 given entry CC(=O)N1CCN(c2nnc(-c3ccc(C)cc3)c3ccccc23)CC1
Ans: 5.30

Q: // fetch pIC50 given entry CNC1CCN(c2nnc(-c3ccc(Cl)cc3)c3ccccc23)C1 (centres unmarked) [Example 46, hydrochloride]
Ans: 6.52

Q: // fetch pIC50 given entry O=C([C@H]1CCCN1)N1CCN(c2nnc(-c3ccc(Cl)cc3)c3ccccc23)CC1 [Example 51, hydrochloride]
Ans: 6.10

Q: // fetch pIC50 given entry O=C(C1CC1)N1CCN(c2nnc(-c3ccc(Cl)cc3)c3ccccc23)CC1
Ans: 5.92

Recorded values, source patent US10947241B2.
